Biological target: T1, hu-CD74 antigen (R&D SYSTEMS catalog #3590-CD-050) (human, UniProt P04233-2 73-232, limits assumed)
T1 construct: Bought antigen; also called rhCD74; human CD74
T1 sequence (looked up): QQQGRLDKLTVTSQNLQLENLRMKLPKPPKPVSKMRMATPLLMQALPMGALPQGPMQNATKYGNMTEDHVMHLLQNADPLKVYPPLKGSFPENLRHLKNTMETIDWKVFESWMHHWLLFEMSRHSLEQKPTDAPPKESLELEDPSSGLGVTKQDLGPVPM
Assay: SPR (Biacore T200), IgG captured on anti-human Fc, rhCD74 analyte
Value kind: kon (M⁻¹ s⁻¹)
Please state the figure in M⁻¹ s⁻¹; there is no need to write the unit.

Below: 2 binders and their reported kon.
>  <Binder>
HC 1251_A06 (g)/LC 1337_A10 (wt) (antibody, human IgG1, kappa, V domains shown, IgG format) VH: QVQLVESGGGVVQPGRSLRLSCAASGFDFSSYGMHWVRQAPGKGLEWVAVIWDDGSDRYYADSVKGRFTISRDNSKNTLYLQMNSLRAEDTAVYYCARGGTRVLGAIHGTDVWGQGTTVTVSS VL: DIQMTQSPSSLSASVGDRVTITCRASQGISSWVAWYQQKPEKAPKSLIYGSSRLQSGVPSRFSGSGSGTDFTLTISSLQPEDFATYYCQQYNTYPLTFGGGTKVEIKR

>  <Unit spec>
M⁻¹ s⁻¹

>  <kon>
479000

$$$$
>  <Binder>
HC 1251_B08 (g)/LC 1275_C10 (g) (antibody, human IgG1, kappa, V domains shown, IgG format) VH: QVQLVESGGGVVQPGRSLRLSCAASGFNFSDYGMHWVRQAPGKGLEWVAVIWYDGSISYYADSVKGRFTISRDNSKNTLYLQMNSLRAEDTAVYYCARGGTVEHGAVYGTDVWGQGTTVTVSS VL: DIQMTQSPSSVSASVGDRVTITCRASQGVSSWLAWYQQKPGKAPKLLIYSARYLQSGVPSRFSGSGSGTDFTLTISSLQPEDFATYYCQQYNLYPLTFGGGTKVEIKR

>  <Unit spec>
M⁻¹ s⁻¹

>  <kon>
306000

$$$$

Read the next record carefully.
Which kon is listed for HC 1251_A06 (wt)/LC 1337_A09 (g) (antibody, human IgG1, kappa, V domains shown, IgG format) VH: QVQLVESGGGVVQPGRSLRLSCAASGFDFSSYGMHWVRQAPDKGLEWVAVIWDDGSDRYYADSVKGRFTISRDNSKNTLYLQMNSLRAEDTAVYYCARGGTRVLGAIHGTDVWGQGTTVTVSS VL: DIQMTQSPSSVSASVGDRVTITCRASQGIGSWLAWYQQKPGKAPKLLIYAADRLQSGVPSRFSGSGSGTDFTLTISSLQPEDFATYYCQQYHTYPLTFGGGTKVEIKR ?
610000

The values you see were collected from patent US20170253656A1.
